- System: Mus musculus
- Assay Notes: In vivo duration of action required to prevent death in mice, after i.v. administration of U-46619 (2 mg/kg) at 0.2 mg/kg p.o.
- Details: po
I would appreciate it if you labelled entries t when T50 is 10 h or higher, otherwise f.

>>> cat("CCCCCNC(=O)c1coc(C2C3CCC(O3)C2Cc2ccccc2CCC(=O)O)n1 (centres undefined) [BMS-180291]")
"t"
>>> cat("CCC(C)(C)NC(=O)c1coc(C2C3CCC(O3)C2Cc2ccccc2CCC(=O)O)n1 (centres undefined)")
"f"
>>> cat("CC(C)(C)CCCCNC(=O)c1coc(C2C3CCC(O3)C2Cc2ccccc2CCC(=O)O)n1 (centres undefined)")
"t"
>>> cat("O=C(O)CCc1ccccc1CC1C2CCC(O2)C1c1nc(C(=O)NCCCCc2ccc(F)cc2)co1 (centres undefined)")
"t"
>>> cat("O=C(O)CCc1ccccc1CC1C2CCC(O2)C1c1nc(C(=O)NC2CCCCC2)co1 (centres undefined)")
"f"
>>> cat("CCCCCCCNC(=O)c1coc(C2C3CCC(O3)C2Cc2ccccc2CCC(=O)O)n1 (centres undefined)")
"f"
>>> cat("CCCNC(=O)c1coc(C2C3CCC(O3)C2Cc2ccccc2CCC(=O)O)n1 (centres undefined)")
"f"
>>> cat("O=C(O)CCc1ccccc1CC1C2CCC(O2)C1c1nc(C(=O)Nc2ccc(Cl)cc2)co1 (centres undefined)")
"t"

---

- Tested Target: Thromboxane A2 receptor (Homo sapiens, UniProt P21731)
- Sequence (P21731 whole entry): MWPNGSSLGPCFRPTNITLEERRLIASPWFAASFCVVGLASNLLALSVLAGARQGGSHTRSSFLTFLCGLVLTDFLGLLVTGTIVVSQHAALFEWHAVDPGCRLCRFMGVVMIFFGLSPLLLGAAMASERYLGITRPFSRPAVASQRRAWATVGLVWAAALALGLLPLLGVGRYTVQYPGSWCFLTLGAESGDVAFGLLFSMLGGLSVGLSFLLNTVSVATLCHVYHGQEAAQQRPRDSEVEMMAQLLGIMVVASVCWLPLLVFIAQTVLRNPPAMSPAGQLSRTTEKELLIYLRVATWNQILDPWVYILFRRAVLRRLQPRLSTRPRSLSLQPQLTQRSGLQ
The following molecules are listed with their measured Kd values.
Reported Endpoint: Kd

>>> reported("CC(C)(C)CCCCNC(=O)c1coc(C2C3CCC(O3)C2Cc2ccccc2CCC(=O)O)n1 (centres undefined)")
"0.6 nM"
>>> reported("O=C(O)CCc1ccccc1CC1C2CCC(O2)C1c1nc(C(=O)NCCCCc2ccccc2)co1 (centres undefined)")
"0.3 nM"
>>> reported("CC(C)(C)NC(=O)c1coc(C2C3CCC(O3)C2Cc2ccccc2CCC(=O)O)n1 (centres undefined)")
"19 nM"
>>> reported("O=C(O)CCc1ccccc1CC1C2CCC(O2)C1c1nc(C(=O)NCCCCc2ccc(Cl)cc2)co1 (centres undefined)")
"0.2 nM"
>>> reported("CCC(C)(C)NC(=O)c1coc(C2C3CCC(O3)C2Cc2ccccc2CCC(=O)O)n1 (centres undefined)")
"0.8 nM"
>>> reported("O=C(O)CCc1ccccc1CC1C2CCC(O2)C1c1nc(C(=O)NC2CCCCC2)co1 (centres undefined)")
"4.5 nM"
>>> reported("O=C(O)Cc1cccc(CC2C3CCC(O3)C2c2nc(C(=O)NCCCCC3CCCCC3)co2)c1 (centres undefined)")
"1.2 nM"
>>> reported("O=C(O)CCc1ccccc1CC1C2CCC(O2)C1c1nc(C(=O)NCCCCc2ccc(F)cc2)co1 (centres undefined)")
"3.9 nM"
>>> reported("CCCCCN(C)C(=O)c1coc(C2C3CCC(O3)C2Cc2ccccc2CCC(=O)O)n1 (centres undefined)")
"11 nM"
>>> reported("CCCCCCCNC(=O)c1coc(C2C3CCC(O3)C2Cc2ccccc2CCC(=O)O)n1 (centres undefined)")
"0.2 nM"
>>> reported("O=C(O)CCCc1ccccc1CC1C2CCC(O2)C1c1nc(C(=O)NCCCCC2CCCCC2)co1 (centres undefined)")
"0.85 nM"
>>> reported("CCCCCNC(=O)c1coc(C2C3CCC(O3)C2Cc2ccccc2CCC(=O)O)n1 (centres undefined) [BMS-180291]")
"4 nM"
>>> reported("CCCCCCCCCCNC(=O)c1coc(C2C3CCC(O3)C2Cc2ccccc2CCC(=O)O)n1 (centres undefined)")
"5.8 nM"
>>> reported("CNC(=O)c1coc(C2C3CCC(O3)C2Cc2ccccc2CCC(=O)O)n1 (centres undefined)")
"45 nM"
>>> reported("O=C(O)CCc1ccccc1CC1C2CCC(O2)C1c1nc(C(=O)NCCCCCO)co1 (centres undefined)")
"20 nM"
>>> reported("O=C(O)CCc1ccccc1CC1C2CCC(O2)C1c1nc(C(=O)NCCc2ccc(Cl)cc2)co1 (centres undefined)")
"1.3 nM"
>>> reported("O=C(O)CCc1ccccc1CC1C2CCC(O2)C1c1nc(C(=O)NCCc2ccccc2)co1 (centres undefined)")
"0.7 nM"
>>> reported("CS(=O)(=O)NC(=O)CCc1ccccc1CC1C2CCC(O2)C1c1nc(C(=O)NCCCCC2CCCCC2)co1 (centres undefined)")
"1.6 nM"
>>> reported("CC(C)(C)CCNC(=O)c1coc(C2C3CCC(O3)C2Cc2ccccc2CCC(=O)O)n1 (centres undefined)")
"2.9 nM"
>>> reported("O=C(O)CCc1ccccc1CC1C2CCC(O2)C1c1nc(C(=O)CCCCCC2CCCCC2)co1 (centres undefined)")
"0.05 nM"
>>> reported("CCCNC(=O)c1coc(C2C3CCC(O3)C2Cc2ccccc2CCC(=O)O)n1 (centres undefined)")
"10 nM"
>>> reported("C#CCCCCCNC(=O)c1coc(C2C3CCC(O3)C2Cc2ccccc2CCC(=O)O)n1 (centres undefined)")
"4.7 nM"
>>> reported("O=C(O)CCc1ccccc1CC1C2CCC(O2)C1c1nc(C(=O)NCCC2CCCCC2)co1 (centres undefined)")
"0.7 nM"
>>> reported("CC(C)NC(=O)c1coc(C2C3CCC(O3)C2Cc2ccccc2CCC(=O)O)n1 (centres undefined)")
"26 nM"

---

- Species: Homo sapiens
- Assay Notes: Inhibitory activity against platelet aggregation, induced by U-46619 in human platelet rich plasma
- Format: functional
- Details: read-out: I50
Reported Endpoint: IC50 (nM)

>>> reported("O=C(O)CCc1ccccc1CCC1C2CCC(O2)C1c1nc(C(=O)NCCCCC2CCCCC2)co1 (stereo not drawn)")
616
>>> reported("O=C(O)COc1ccccc1CC1C2CCC(O2)C1c1nc(C(=O)NCCCCC2CCCCC2)co1 (stereo not drawn)")
8
>>> reported("O=C(O)CCc1ccccc1CC1C2CCC(O2)C1c1nc(C(=O)NCCc2ccc(Cl)cc2)co1 (stereo not drawn)")
14

---

- Assay Notes: Partition coefficient (logP)
- Format: physicochemical
- Details: octanol/water
Each entry below lists one item and its recorded logP value.
Reported Endpoint: logP

>>> reported("CN(CCCCC1CCCCC1)C(=O)c1coc(C2C3CCC(O3)C2Cc2ccccc2CCC(=O)O)n1 (centres undefined)")
3.89
>>> reported("O=C(O)CCc1ccccc1CC1C2CCC(O2)C1c1nc(C(=O)NCCCCC2CCCCC2)co1 (centres undefined)")
3.93
>>> reported("CCC(C)(C)NC(=O)c1coc(C2C3CCC(O3)C2Cc2ccccc2CCC(=O)O)n1 (centres undefined)")
0.51
>>> reported("COc1ccc(CCCCNC(=O)c2coc(C3C4CCC(O4)C3Cc3ccccc3CCC(=O)O)n2)cc1 (centres undefined)")
2.49
>>> reported("O=C(O)CCc1ccccc1CC1C2CCC(O2)C1c1nc(C(=O)NCCCCc2ccc(F)cc2)co1 (centres undefined)")
2.17
>>> reported("COc1ccc(NC(=O)c2coc(C3C4CCC(O4)C3Cc3ccccc3CCC(=O)O)n2)cc1 (centres undefined)")
0.95
>>> reported("O=C(O)CCc1ccccc1CC1C2CCC(O2)C1c1nc(C(=O)NC2CCCCC2)co1 (centres undefined)")
0.89
>>> reported("O=C(O)CCc1ccccc1CC1C2CCC(O2)C1c1nc(C(=O)Nc2ccc(Cl)cc2)co1 (centres undefined)")
2.52
>>> reported("O=C(O)CCc1ccccc1CC1C2CCC(O2)C1c1nc(C(=O)NCCCCC(F)(F)F)co1 (centres undefined)")
1.59
>>> reported("CCCCCN(C)C(=O)c1coc(C2C3CCC(O3)C2Cc2ccccc2CCC(=O)O)n1 (centres undefined)")
1
>>> reported("C#CCCCCCNC(=O)c1coc(C2C3CCC(O3)C2Cc2ccccc2CCC(=O)O)n1 (centres undefined)")
0.87
>>> reported("O=C(O)CCc1ccccc1CC1C2CCC(O2)C1c1nc(C(=O)NCCc2ccccc2)co1 (centres undefined)")
0.98
>>> reported("CNC(=O)c1coc(C2C3CCC(O3)C2Cc2ccccc2CCC(=O)O)n1 (centres undefined)")
-0.11
>>> reported("NC(=O)c1coc(C2C3CCC(O3)C2Cc2ccccc2CCC(=O)O)n1 (centres undefined)")
-0.78
>>> reported("O=C(O)CCc1ccccc1CC1C2CCC(O2)C1c1nc(C(=O)NCCc2ccc(Cl)cc2)co1 (centres undefined)")
1.55
>>> reported("CCCCCCCNC(=O)c1coc(C2C3CCC(O3)C2Cc2ccccc2CCC(=O)O)n1 (centres undefined)")
2.88
>>> reported("CCCCCNC(=O)c1coc(C2C3CCC(O3)C2Cc2ccccc2CCC(=O)O)n1 (centres undefined)")
1.61
>>> reported("CS(=O)(=O)c1ccc(CCCCNC(=O)c2coc(C3C4CCC(O4)C3Cc3ccccc3CCC(=O)O)n2)cc1 (centres undefined)")
0.32
>>> reported("O=C(O)CCc1ccccc1CC1C2CCC(O2)C1c1nc(C(=O)NCCCCC(=O)NC2CCCCC2)co1 (centres undefined)")
1.18
